Study Target: XIAP BIR3 (Homo sapiens)
Sequence (P98170 241-356 limits assumed): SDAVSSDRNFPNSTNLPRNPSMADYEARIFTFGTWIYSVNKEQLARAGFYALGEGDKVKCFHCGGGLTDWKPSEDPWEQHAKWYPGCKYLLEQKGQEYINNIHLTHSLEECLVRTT
Assay Summary: Biotinylated BIR3 XIAP domain Alphascreen assay
Design: biotinylated XIAP BIR3; biotin (biotinylated)
Particulars: biotinylated XIAP BIR3, FITC-labeled IAP-binding molecule, Streptavidin Donor / Anti-FITC Acceptor Beads, incubation 2 hours; concentration reducing alphascreen signal to half of maximum
Where a SMILES comes first, the peptide text is derived from it. [ ]: non-standard residue; d: D form. Pro(cis-4-Ph) = O=C(O)[C@@H]1C[C@H](c2ccccc2)CN1; Abu = CC[C@H](N)C(=O)O
Recorded Metric: IC50

Record excerpt, results attached:
# Compound, IC50
measured = [
    ("CC[C@H](NC(=O)[C@H](C)N)C(=O)N1C[C@@H](c2ccccc2)C[C@H]1C(=O)N1C[C@@H](c2ccccc2)C[C@H]1C(=O)NC [Example 16] (H-A[Abu][Pro(cis-4-Ph)][Pro(cis-4-Ph)]-NHMe)", "0.1 to 100 nM"),
    ("C[C@@H](N)C1CCCC(C(=O)N2C[C@@H](c3ccccc3)C[C@H]2C(=O)N2CC[C@H](c3ccccc3)C2)N1 (stereo partly drawn)", "> 1000 nM"),
]

Lab note: next compound to report on.
### Prompt Output reported IC50 of the compound CC(N)c1ccc(C(=O)N2C[C@@H](c3ccccc3)C[C@H]2CN2CC[C@H](c3ccccc3)C2)o1 (stereo partly drawn) on XIAP BIR3 (Homo sapiens).
### Response 100 to 1000 nM
